Taken from patent US8916703B2.

# methodDescription: logP by HPLC on reversed-phase column (EEC Directive 79/831 Annex V.A8)
# Assay type: physicochemical
# testContext: reversed-phase C18 HPLC column, 43° C., acidic range pH 2.7 (0.1% formic acid/acetonitrile), read-out: Log P
readout: chromatographic logP
Give bare numbers.

input: Please report chromatographic logP for the following compound: `CC(C)(C)n1ncc2c(c1=O)Sc1c(cnn(C(C)(C)C)c1=O)S2`
output: 4.6
